# target_under_test: UniProt:O14842
# protocol_details: Inositol phosphate accumulation assay (IP1 HTRF) in CHO-K1 cells expressing human GPR40
# particulars: 90 min stimulation
pEC50: −log10 of the molar value.
quantity_measured: pEC50

[[record]]
compound = "CCN(Cc1cc(-c2cc(OC)ncc2F)ccc1C(=O)Oc1cccc([C@@H](CC(=O)O)C2CC2)c1)C(C)C [Compound 13]"
reported_measurement = "< 6.30"

[[record]]
compound = "COc1cc(-c2cc(C)c(C(=O)Oc3cccc([C@H](C4CC4)[C@H](C)C(=O)O)c3)cc2CN(C(C)C)C(C)C)c(F)cn1 [Compound 21]"
reported_measurement = "≥ 8.00"

[[record]]
compound = "CCN(Cc1cc(C(=O)Oc2cccc([C@H](C3CC3)[C@@](C)(F)C(=O)O)c2)ccc1-c1cc(OC)ccc1F)C(C)C [Compound 38]"
reported_measurement = "≥ 8.00"

[[record]]
compound = "COc1cc(-c2cc(C)c(OC(=O)c3cccc([C@H](C4CC4)[C@H](C)C(=O)O)c3)cc2CN(C(C)C)C(C)C)c(F)cn1 [Compound 61]"
reported_measurement = "≥ 8.00"

[[record]]
compound = "COc1ccc(F)c(-c2nocc2C(=O)Oc2cccc([C@@H](CC(=O)O)C3CC3)c2)c1 [Compound 5]"
reported_measurement = "< 6.30"

[[record]]
compound = "COc1cc(-c2ccc(C(=O)Oc3cccc([C@H](C4CC4)[C@H](C)C(=O)O)c3)cc2CN2CCC(C)(C)C2)c(F)cn1 [Compound 33]"
reported_measurement = "≥ 8.00"

[[record]]
compound = "CCN(Cc1cc(C(=O)Oc2cccc([C@H](C3CC3)[C@H](C)C(=O)O)c2)ccc1-c1cc(OC)ccc1F)C(C)C [Compound 30]"
reported_measurement = "≥ 8.00"


* * *

# target_under_test: human GPR40 (Homo sapiens, UniProt O14842)
# Sequence (O14842 whole entry): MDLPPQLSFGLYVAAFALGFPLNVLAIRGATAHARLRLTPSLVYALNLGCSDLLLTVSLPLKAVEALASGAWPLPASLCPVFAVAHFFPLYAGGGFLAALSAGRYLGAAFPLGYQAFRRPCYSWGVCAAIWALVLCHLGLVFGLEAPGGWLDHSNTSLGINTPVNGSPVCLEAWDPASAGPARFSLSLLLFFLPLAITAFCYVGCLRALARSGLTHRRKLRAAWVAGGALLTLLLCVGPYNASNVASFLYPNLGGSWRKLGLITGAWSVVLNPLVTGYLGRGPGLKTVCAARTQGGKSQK
# protocol_details: Inositol phosphate accumulation assay (IP1 HTRF) in CHO-K1 cells expressing human GPR40
# particulars: 90 min stimulation
This section presents compounds with their documented EC50 values.
quantity_measured: EC50

[[record]]
compound = "COc1cc(-c2ccc(C(=O)Oc3cccc([C@@H](CC(=O)O)C4CC4)c3)c(F)c2)ccn1 [Compound 17]"
reported_measurement = "100 to 500 nM"

[[record]]
compound = "COc1cc(-c2ccc(C(=O)Oc3cccc([C@H](C4CC4)[C@H](C)C(=O)OCCP(=O)(O)O)c3)cc2CN(C(C)C)C(C)C)c(F)cn1 [Compound 68]"
reported_measurement = "100 to 500 nM"

[[record]]
compound = "COc1cc(-c2ccc(C(=O)Oc3cccc([C@@H](CC(=O)O)C4CC4)c3)c(C)c2)c(F)cn1 [Compound 10]"
reported_measurement = "100 to 500 nM"

[[record]]
compound = "CC(c1cc(C(F)(F)F)ccc1C(F)(F)F)N1CCN(C(=O)Oc2cccc([C@@H](CC(=O)O)C3CC3)c2)CC1 (stereo partly shown) [Compound 20]"
reported_measurement = "10 to 100 nM"


* * *

# target_under_test: human GPR40 (Homo sapiens)
# protocol_details: Inositol phosphate accumulation assay (IP1 HTRF) in CHO-K1 cells expressing human GPR40
# particulars: 90 min stimulation
quantity_measured: EC50

[[record]]
compound = "COc1cc(-c2ccc(C(=O)Oc3cccc([C@H](C4CC4)[C@H](C)C(=O)O)c3)cc2CN(C(C)C)C(C)C)c(F)cn1"
quantity_measured = "EC50"
reported_measurement = "≤ 0.01 µM"

[[record]]
compound = "COc1cc(-c2cc(F)c(OC(=O)c3cccc([C@H](C4CC4)[C@H](C)C(=O)O)c3)cc2CN(C(C)C)C(C)C)ccn1"
quantity_measured = "EC50"
reported_measurement = "≤ 0.01 µM"

[[record]]
compound = "COc1cc(-c2ccc(OC(=O)c3cccc([C@H](C4CC4)[C@H](C)C(=O)O)c3)c(C)c2)c(F)cn1"
quantity_measured = "EC50"
reported_measurement = "≤ 0.01 µM"

[[record]]
compound = "CC(c1cc(C(F)(F)F)ccc1C(F)(F)F)N1CCC(C(=O)Oc2cccc([C@@H](CC(=O)O)C3CC3)c2)C1 (stereo partly shown)"
quantity_measured = "EC50"
reported_measurement = "0.01 to 0.1 µM"

[[record]]
compound = "COc1cc(-c2ccc(C(=O)Oc3cccc([C@H](C4CC4)[C@H](C)C(=O)O)c3)c(C)c2)c(F)cn1"
quantity_measured = "EC50"
reported_measurement = "≤ 0.01 µM"

[[record]]
compound = "COc1cc(-c2cc(C)c(C(=O)Oc3cccc([C@@H](CC(=O)O)C4CC4)c3)c(F)c2)ccn1"
quantity_measured = "EC50"
reported_measurement = "0.1 to 0.5 µM"

[[record]]
compound = "CC(c1cc(C(F)(F)F)ccc1C(F)(F)F)N1CCC(C(=O)Oc2cccc([C@@H](CC(=O)O)C3CC3)c2)CC1 (stereo partly shown)"
quantity_measured = "EC50"
reported_measurement = "0.01 to 0.1 µM"

[[record]]
compound = "COc1cc(-c2ccc(C(=O)Oc3cccc([C@H](C4CC4)[C@H](C)C(=O)O)c3)c(C)c2)c(C(=O)NCCO)cn1"
quantity_measured = "EC50"
reported_measurement = "> 0.5 µM"

[[record]]
compound = "COc1cc(-c2ccc(C(=O)Oc3cccc([C@H](C4CC4)[C@H](C)C(=O)O)c3)c(C)c2)ccn1"
quantity_measured = "EC50"
reported_measurement = "≤ 0.01 µM"

[[record]]
compound = "CC(c1cc(C(F)(F)F)ccc1C(F)(F)F)N1CCC(C(=O)Oc2cccc([C@H](C3CC3)[C@H](C)C(=O)O)c2)CC1 (stereo partly shown)"
quantity_measured = "EC50"
reported_measurement = "≤ 0.01 µM"

[[record]]
compound = "COc1ccc(C(=O)N(CC(C)(C)C)c2cccc(C)n2)c(-c2ccc(C(=O)Oc3cccc([C@H](C4CC4)[C@H](C)C(=O)O)c3)c(C)c2)c1"
quantity_measured = "EC50"
reported_measurement = "≤ 0.01 µM"

[[record]]
compound = "COc1cc(-c2ccc(C(=O)Oc3cccc([C@@H](CC(=O)O)C4CC4)c3)cc2CN(C(C)C)C(C)C)c(F)cn1"
quantity_measured = "EC50"
reported_measurement = "≤ 0.01 µM"

[[record]]
compound = "COc1cc(-c2cc(F)c(C(=O)Oc3cccc([C@H](C4CC4)[C@@](C)(F)C(=O)O)c3)cc2CN(C(C)C)C(C)C)ccn1"
quantity_measured = "EC50"
reported_measurement = "≤ 0.01 µM"


* * *

# target_under_test: human GPR40 (Homo sapiens, UniProt O14842)
# protocol_details: Inositol phosphate accumulation assay (IP1 HTRF) in CHO-K1 cells expressing human GPR40
# particulars: 90 min stimulation
EC50 values for the compounds below.
quantity_measured: EC50

[[record]]
compound = "CC(c1cc(C(F)(F)F)ccc1C(F)(F)F)N1CC[C@@H](OC(=O)c2cccc([C@@H](CC(=O)O)C3CC3)c2)C1 (stereo partly shown)"
quantity_measured = "EC50"
reported_measurement = "> 500 nM"

[[record]]
compound = "O=C(O)C[C@H](c1cccc(C(=O)Oc2ccc(-c3cc(O)ccc3F)cc2)c1)C1CC1"
quantity_measured = "EC50"
reported_measurement = "100 to 500 nM"

[[record]]
compound = "CC(c1cc(C(F)(F)F)ccc1C(F)(F)F)N1CC[C@H](OC(=O)c2cccc([C@@H](CC(=O)O)C3CC3)c2)C1 (stereo partly shown)"
quantity_measured = "EC50"
reported_measurement = "> 500 nM"

[[record]]
compound = "COc1cc(-c2cc(C)c(C(=O)Oc3cccc([C@@H](CC(=O)O)C4CC4)c3)cc2CN(C(C)C)C(C)C)c(F)cn1"
quantity_measured = "EC50"
reported_measurement = "10 to 100 nM"

[[record]]
compound = "COc1cc(-c2cc(F)c(C(=O)Oc3cccc([C@@H](CC(=O)O)C4CC4)c3)cc2CN(C(C)C)C(C)C)ccn1"
quantity_measured = "EC50"
reported_measurement = "≤ 10 nM"

[[record]]
compound = "COc1cc(-c2ccc(C(=O)Oc3cccc(C(CP(C)(=O)O)C4CC4)c3)cc2CN(C(C)C)C(C)C)c(F)cn1 (stereo not shown)"
quantity_measured = "EC50"
reported_measurement = "> 500 nM"

[[record]]
compound = "COc1cc(-c2ccc(OC(=O)c3cccc([C@H](C4CC4)[C@H](C)C(=O)O)c3)cc2)c(F)cn1"
quantity_measured = "EC50"
reported_measurement = "≤ 10 nM"

[[record]]
compound = "COc1cc(-c2ccc(OC(=O)c3cccc([C@H](C4CC4)[C@H](C)C(=O)O)c3)c(CN(C(C)C)C(C)C)c2)c(F)cn1"
quantity_measured = "EC50"
reported_measurement = "≤ 10 nM"

[[record]]
compound = "COc1ccc(F)c(-c2ccc(C(=O)Oc3cccc([C@@H](CC(=O)O)C4CC4)c3)nc2)c1"
quantity_measured = "EC50"
reported_measurement = "> 500 nM"

[[record]]
compound = "COc1ccc(F)c(-c2ccc(OC(=O)c3cccc([C@@H](CC(=O)O)C4CC4)c3)cc2)c1"
quantity_measured = "EC50"
reported_measurement = "100 to 500 nM"

[[record]]
compound = "COc1cc(-c2cc(C)c(C(=O)Oc3cccc([C@@H](CP(C)(=O)O)C4CC4)c3)cc2CN(C(C)C)C(C)C)c(F)cn1 (single isomer, unassigned) [Compound 71b]"
quantity_measured = "EC50"
reported_measurement = "> 500 nM"

[[record]]
compound = "COc1ccc(F)c([C@H]2CC[C@H](C(=O)Oc3cccc([C@H](C4CC4)[C@@](C)(F)C(=O)O)c3)CC2)c1"
quantity_measured = "EC50"
reported_measurement = "≤ 10 nM"

[[record]]
compound = "COc1cc(-c2ccc(C(=O)Oc3cccc([C@H](C4CC4)[C@H](C)C(=O)O)c3)c(C)c2)c(C(=O)N(CCO)CCO)cn1"
quantity_measured = "EC50"
reported_measurement = "> 500 nM"

